- system-tested: recombinant BRD4 BD2 (Homo sapiens, UniProt O60885)
- Construct: for recombinant BRD4 BD1 and BRD4 BD2 proteins
- test-name: Competitive fluorescence-polarization (FP) binding assay, BRD4 BD2; further: probe 1.5 nM
- experimental-conditions: competitive FP assay; protein 6 nM, probe […]; read-out: IC50 (nM) BRD4 BD2
value-kind: IC50 (nM)

molecule	IC50, nM
COc1cc2c(cc1-c1c(C)noc1C)[nH]c1nc(C)nc(Nc3c(C)c(C)nn3C(C)(C)C)c12 [Cpd. No. 185]	12.3
COc1cc2c(cc1-c1c(C)noc1C)[nH]c1nc(C)nc(Nc3cccc(N(C)C)c3)c12 [Cpd. No. 230]	8
COc1cc2c(cc1-c1c(C)noc1C)[nH]c1nc(C)nc(Nc3cc(C4(C)CC4)nn3C)c12 [Cpd. No. 251]	5.5
COc1cc2c(cc1-c1c(C)noc1C)[nH]c1nc(C)nc(Nc3cccc4c3cnn4C)c12 [Cpd. No. 235]	52
CCn1ncc(C)c1Nc1nc(C)nc2[nH]c3cc(-c4c(C)noc4C)c(OC)cc3c12 [Cpd. No. 176]	10.3
COc1cc2c(cc1-c1c(C)noc1C)[nH]c1nc(C)nc(Nc3c(C)noc3C)c12 [Cpd. No. 215]	57

(A) COc1cccc(Nc2nc(C)nc3[nH]c4cc(-c5c(C)noc5C)c(OC)cc4c23)c1 [Cpd. No. 213]
(B) COc1cc2c(cc1-c1c(C)noc1C)[nH]c1nc(C)nc(Nc3ccnn3C(C)(C)C)c12 [Cpd. No. 183]
Exercise: Which item exceeds the other in IC50, A or B ? Lab log: write the label of the selected item as the result.
Solution: A
(A: 28 nM, B: 6.1 nM)

(A) COc1cc2c(cc1-c1c(C)noc1C)[nH]c1ncnc(Nc3nn(C)c4ccccc34)c12 [Cpd. No. 17]
(B) COc1cc2c(cc1-c1c(C)noc1C)[nH]c1nc(C)nc(Nc3cn(C)nc3C(C)(C)C)c12 [Cpd. No. 193]
(C) COc1cc2c(cc1-c1c(C)noc1C)[nH]c1nc(C)nc(Nc3cnn4c3CCC4)c12 [Cpd. No. 134]
Exercise: Ranking field: IC50; order: falling. List labels; respect the requested ordering.
Solution: A, C, B
(A: 82.3 nM, C: 30.5 nM, B: 2.7 nM)

(1) COc1cc2c(cc1-c1c(C)noc1C)[nH]c1nc(C)nc(Nc3cccc4ncsc34)c12 [Cpd. No. 229]
(2) CCc1cccc(Nc2nc(C)nc3[nH]c4cc(-c5c(C)noc5C)c(OC)cc4c23)c1 [Cpd. No. 216]
Exercise: Parameter metric = IC50. Return the lower-valued option from 1 and 2 . Answer = label.
Solution: 1
(1: 22 nM, 2: 35 nM)

(P) COc1cc2c(cc1-c1c(C)noc1C)[nH]c1nc(C)nc(Nc3csc4ncccc34)c12 [Cpd. No. 103]
(Q) COc1cc2c(cc1-c1c(C)noc1C)[nH]c1nc(C)nc(Nc3cn(C)c4ncccc34)c12 [Cpd. No. 227]
Exercise: Hi, I'm comparing P with Q and wondering which one has the bigger number for IC50. Any idea? Please identify the chosen entry by its label.
Solution: P

----------
- Tested on: MDA-MB-436
- test-name: Cell growth inhibition, MDA-MB-436 breast cancer cells (WST-8)
- Type: cell-based
- experimental-conditions: Homo sapiens, MDA-MB-436, 96 h; 4 days; read-out: IC50 (nM) MDA-MB-436 Cell Line (WST assay)
value-kind: IC50 (nM)

smiles-input	reported-result
COc1cc2c(cc1-c1c(C)noc1C)[nH]c1nc(C)nc(Nc3nn(C)c4cccnc34)c12	1420
COc1cc2c(cc1-c1c(C)noc1C)[nH]c1nc(C)nc(Nc3cc(C)n(C)n3)c12	81.1
COc1cc2c(cc1-c1c(C)noc1C)[nH]c1nc(C)nc(Nc3ccccc3C(C)C)c12	162
COc1cc2c(cc1-c1c(C)noc1C)[nH]c1nc(C)nc(Nc3cc(C)nn3C3CC3)c12	422
COc1cc2c(cc1-c1c(C)noc1C)[nH]c1nc(C)nc(Nc3cccc(Cl)c3F)c12	1930

(1) COc1cc2c(cc1-c1c(C)noc1C)[nH]c1nc(C)nc(Nc3c(C#N)cnn3C)c12
(2) COc1cc2c(cc1-c1c(C)noc1C)[nH]c1nc(C)nc(Nc3cc(C)ccc3C)c12
(3) COc1cc2c(cc1-c1c(C)noc1C)[nH]c1nc(C)nc(Oc3ccnc4ccccc34)c12
(4) COc1cc2c(cc1-c1c(C)noc1C)[nH]c1nc(C)nc(Nc3ccnn3C)c12
(5) COc1cc2c(cc1-c1c(C)noc1C)[nH]c1nc(C)nc(Nc3c[nH]nc3-c3ccccc3)c12
Exercise: Sort (5 molecules) by IC50: min first. Output spec: labels arranged per the requested ranking.
Solution: 3, 2, 1, 5, 4
(3: 3.4 nM, 2: 61 nM, 1: 118 nM, 5: 246 nM, 4: 634 nM)

(1) COc1cc2c(cc1-c1c(C)noc1C)[nH]c1nc(C)nc(Nc3c(C(C)C)nn(C)c3C(C)C)c12
(2) COc1cc2c(cc1-c1c(C)noc1C)[nH]c1nc(C)nc(Nc3[nH]ncc3C(C)C)c12
(3) COc1ccc2c(Nc3nc(C)nc4[nH]c5cc(-c6c(C)noc6C)c(OC)cc5c34)nn(C)c2c1
Exercise: Let's sort these by IC50, smallest first. Go ahead? Reply with the item labels sorted in the order that was asked for.
Solution: 1, 2, 3
(1: 47 nM, 2: 155 nM, 3: 323 nM)

----------
- system-tested: recombinant BRD4 BD1 (Homo sapiens, UniProt O60885)
- Construct: for recombinant BRD4 BD1 and BRD4 BD2 proteins
- test-name: Competitive fluorescence-polarization (FP) binding assay, BRD4 BD1
- experimental-conditions: FP competitive binding, BRD4 BD1; read-out: Binding affinities (FP) BRD4BD1 Ki
value-kind: Ki (nM)

compound	output-unit	Ki
COc1nc2c(cc1-c1c(C)noc1C)[nH]c1nc(C)nc(N(C)c3cc(C)nn3C(C)(C)C)c12 [compound 316]	nM	106
COc1nc2c(cc1-c1c(C)noc1C)[nH]c1nc(C)nc(Nc3c(C)cnn3C(C)C)c12 [compound 312]	nM	140

(1) COc1nc2c(cc1-c1c(C)noc1C)[nH]c1nc(C)nc(Nc3cc(C)nn3C(C)(C)C)c12 [Cpd. No. 310]
(2) COc1nc2c(cc1-c1c(C)noc1C)[nH]c1nc(C)nc(N(C)c3cc(C(C)(C)C)nn3C)c12 [compound 315]
Exercise: Which entry shows the lesser value of Ki here, 1 or 2 ? Selection: enter the item's label.
Solution: 2

----------
- Test system: MOLM-13
- test-name: Cell growth inhibition, MOLM-13 leukemia cells (CellTiter-Glo)
- Type: cell-based
- experimental-conditions: Homo sapiens, MOLM-13, 96 h; 4 days; read-out: IC50 (nM) MOLM-13 Cell Line (CellTiter-Glo assay)
value-kind: IC50 (nM)

Below are worked cases with known answers.
smiles-input	output-unit	IC50
COc1cc2c(cc1-c1c(C)noc1C)[nH]c1nc(C)nc(Nc3c4c(nn3C(C)C)CCCC4)c12	nM	5.7
COc1cc2c(cc1-c1c(C)noc1C)[nH]c1nc(C)nc(Nc3nn(C)c4ncccc34)c12	nM	45.6
COc1cc2c(cc1-c1c(C)noc1C)[nH]c1nc(C)nc(Nc3cn(C)nc3C(C)(C)O)c12	nM	97.4

(P) COc1cc2c(cc1-c1c(C)noc1C)[nH]c1nc(C)nc(Nc3cccc4ccncc34)c12
(Q) COc1cc2c(cc1-c1c(C)noc1C)[nH]c1nc(C)nc(Nc3cc(C(C)(C)C)nn3C)c12
Exercise: Looking only at measured IC50, which entry is lower, P or Q ? Please reply using the label of the selected record.
Solution: Q
(Q: 23 nM, P: 115 nM)

(1) COc1cc2c(cc1-c1c(C)noc1C)[nH]c1nc(C)nc(Nc3nn(C)c4ccc(Cl)cc34)c12
(2) COc1cc2c(cc1-c1c(C)noc1C)[nH]c1nc(C)nc(Nc3nn(CCO)c4ccccc34)c12
(3) COc1cc2c(cc1-c1c(C)noc1C)[nH]c1nc(C)nc(Nc3noc(C)c3C)c12
Exercise: Arrange these 3 molecules in increasing order of IC50. // respond by listing labels in the order requested
Solution: 2, 1, 3

----------
- Test system: MDA-MB-436
- test-name: Cell growth inhibition, MDA-MB-436 breast cancer cells (WST-8)
- Format: cell-based
- experimental-conditions: Homo sapiens, MDA-MB-436, 96 h; 4 days; read-out: IC50 (nM) MDA-MB-436 Cell Line (WST assay)
value-kind: IC50 (nM)

(1) COc1cc2c(cc1-c1c(C)noc1C)[nH]c1nc(C)nc(Nc3c(C)cnn3C3CCC3)c12
(2) COc1cc2c(cc1-c1c(C)noc1C)[nH]c1nc(C)nc(Nc3noc(C)c3C)c12
Exercise: Which is greater in IC50, the first item 1 or the second item 2 ? Could you answer with the label of the item you picked?
Solution: 2
